Values were extracted from PubChem BioAssay AID1996.

# settings: buffer; pH 7.4; 200.0 µM
Cut-off 10 µg/mL on solubility kinetic, inclusive. At or above means Condition met; below means Condition not met.

[[record]]
compound = "Cc1ccc(NC(=S)Nc2ccccn2)c(C)c1"
label_class = "Condition not met"

[[record]]
compound = "O=C(CSc1ccc(F)cc1)Nc1ccc2c(c1)C(=O)NC2=O"
label_class = "Condition met"

[[record]]
compound = "Cc1cc(Cl)ccc1NC(=O)Cn1cncn1"
label_class = "Condition met"

[[record]]
compound = "Cc1ccc2c(c1)c1c(n2CC(O)CN2CCCCC2C)CCCC1 (centres undefined)"
label_class = "Condition met"

[[record]]
compound = "COc1ccc(/C=C/C(=O)Nc2ccccc2F)cc1S(=O)(=O)N1CCOCC1"
label_class = "Condition met"

[[record]]
compound = "Cc1cc(NS(=O)(=O)c2ccc(NC(=O)COc3ccc(C#N)cc3)cc2)nc(C)n1"
label_class = "Condition met"

[[record]]
compound = "O=C(Nc1nccs1)C1CC(=O)N(c2ccccc2)C1 (centres undefined)"
label_class = "Condition met"

[[record]]
compound = "CN(C)CC/C=C1\\c2ccccc2Sc2cc(F)c(Cl)cc21.Cl"
label_class = "Condition met"

[[record]]
compound = "O=C(COC(=O)c1ccc(Cl)nc1)Nc1ccc(N2CCCCC2)cc1"
label_class = "Condition met"

[[record]]
compound = "O=C(Nc1cccnc1)c1ccc(C(=O)Nc2cccnc2)cc1"
label_class = "Condition not met"

[[record]]
compound = "COc1ccc(OC)c(CNc2c(C=O)c(=O)[nH]c3ccccc23)c1"
label_class = "Condition not met"

[[record]]
compound = "CC(C)c1onc(C(=O)Nc2cccc(O)c2)c1[N+](=O)[O-]"
label_class = "Condition met"

[[record]]
compound = "O=C(CN1C(=O)NC2(CCCCC2)C1=O)Nc1ccc2c(c1)CCC2"
label_class = "Condition not met"

[[record]]
compound = "Cc1ccc(C)c(NC(=O)c2ccc3nccnc3c2)c1"
label_class = "Condition not met"

[[record]]
compound = "Nc1cc(N2CCCC2)ccc1[N+](=O)[O-]"
label_class = "Condition not met"

[[record]]
compound = "O=C(O)C(Cc1ccccc1)n1c(=S)[nH]c2ccccc2c1=O (centres undefined)"
label_class = "Condition met"

[[record]]
compound = "O=C(NC1CCCC1)C(=O)c1c[nH]c2ccccc12"
label_class = "Condition met"

[[record]]
compound = "CCN1CCN(c2nc3c(c(=O)[nH]2)CCC3)CC1"
label_class = "Condition met"

[[record]]
compound = "O=c1cc(Cl)[nH]c(=O)n1Cc1ccc(F)cc1"
label_class = "Condition met"

[[record]]
compound = "O=C(OCC(=O)N1CCc2ccccc21)c1ccc(Br)o1"
label_class = "Condition not met"

[[record]]
compound = "COc1ccc(C)cc1Nc1nc(C)nc2sc(C)cc12"
label_class = "Condition not met"

[[record]]
compound = "CCS(=O)CC(=O)Nc1c(-c2ccccc2)oc2ccccc2c1=O (centres undefined)"
label_class = "Condition met"

[[record]]
compound = "O=C(Cc1cccs1)NCc1cccc(Cl)c1"
label_class = "Condition met"

[[record]]
compound = "CC(=O)Nc1ccc(S(=O)(=O)Nc2ccc3ccccc3n2)cc1"
label_class = "Condition met"

